Experimental target: the molecule itself
Protocol text: SEC; Superdex 200 HR 10/30; 20 mM Tris/acetate pH 7.6, 150 mM NaCl, 0.1 mM EDTA, 0.1 mM PMSF, 15 mM beta-mercaptoethanol; 10-120 ug protein in 100 uL loaded; apparent mass from calibration, estimated number of subunits
Readout type: stoichiometry N

Field request: stoichiometry N | item: R29A mutant of human HspB8 (natural protein, UniProt Q9UJY1 1-196, looked up, HspB8, human; UniProt Q9UJY1; Arg29 of the RLFDQxFG motif replaced by Ala; Expressed from pET23b; also called R29A HspB8; source: E. coli BL21(DE3)pLysS, purified (ammonium sulfate fractionation, HiTrap Phenyl Sepharose, Superdex-200 SEC)) MADGQMPFSCHYPSRLRRDPFRDSPLSSALLDDGFGMDPFPDDLTASWPDWALPRLSSAWPGTLRSGMVPRGPTATARFGVPAEGRTPPPFPGEPWKVCVNVHSFKPEELMVKTKDGYVEVSGKHEEKQQEGGIVSKNFTKKIQLPAEVDPVTVFASLSPEGLLIIEAPQVPPYSTFGESSFNNELPQDSQEVTCT
~3 monomers

API: the following record is the query input.
Field request: stoichiometry N | item: R27A mutant of human HspB6 (natural protein, UniProt O14558 1-160, looked up, HspB6, human; UniProt O14558; Arg27 of the RLFDQxFG motif replaced by Ala; Expressed from pET23b; also called R27A HspB6; R27A mutant of HspB6) MEIPVPVQPSWLRRASAPLPGLSAPGALFDQRFGEGLLEAELAALCPTTLAPYYLRAPSVALPVAQVPTDPGHFSVLLDVKHFSPEEIAVKVVGEHVEVHARHEERPDEHGFVAREFHRRYRLPPGVDPAAVTSALSPEGVLSIQAAPASAQAPPPAAAK
~3 monomers
